Catalogue of TGI values
Tested on: MDA-MB-468 breast
ASSAY METHOD TEXT: NCI tumour cell line growth inhibition, 48 h
ENDPOINT NAME: TGI (µM)

>>> reading("CC[C@H](Nc1ncnc2nc[nH]c12)c1oc2ccccc2c(=O)c1-c1cccc(F)c1")
34.4
>>> reading("Cc1cc(-c2ccc3nc(C4CCOCC4)n(CCOC(F)(F)F)c3c2)cn(C)c1=O")
2.25
>>> reading("O=C1c2cc3c(cc2-c2c1c1ccc(F)cc1c(=O)n2CCCNCCO)OCO3")
0.0705
>>> reading("N#C/C(=N\\Nc1ccc(F)cc1)C(=O)Nc1cc(-c2ccccc2)nn1-c1ccccc1")
6.01
>>> reading("CN(C(=O)c1ccc(C(F)(F)F)cc1)c1ccc(Oc2ccc3c(c2)cc(C(=O)N2CCN(Cc4ccc(OC(F)F)cc4)CC2)n3C)nc1")
28.6
>>> reading("Cn1cc(-c2nc(N)nnc2-c2c[nH]c3ccc(F)cc23)c2cc(Br)cnc21")
0.124
>>> reading("C=C1C(=O)O[C@H]2[C@H]1CC/C(COC(=O)c1c[nH]c3ccccc13)=C\\CC[C@@]1(C)O[C@@H]21")
0.448
>>> reading("CN1CCN(CCCn2c(=O)c3sc4ncccc4c3n3nnc(-c4ccccc4)c23)CC1")
13.9
>>> reading("CC(C)[C@H]1COC(=O)N1[C@@H]1C(=O)N([C@@H](CCC(=O)N2CCN(C3CCCC3)CC2)C(=O)N[C@@H]2CCCc3ccccc32)[C@@H]1/C=C/c1cccc(Br)c1")
2.12
